Consider the following compounds and their measured GI50 readings.
# Test system: SK-MEL-5
# method_notes: NCI tumour cell line growth inhibition, 48 h
Calls of active or inactive are those of the source. Rule as the data show it: active = GI50 up to about 1.1 µM and inactive = higher.

compound: O=[N+]([O-])/C(C(Cl)=C(Cl)Cl)=C1\NCCO1
GI50: > 100 µM (inactive)
//
compound: COc1nc(SC)nc2c1cnn2C1OC(C(O)CO)C(OC)C1O (centres undefined)
GI50: > 100 µM (inactive)
//
compound: COc1cc2c[n+](C)c3c4cc(OC)c(OC)cc4ccc3c2cc1OC
GI50: 32 µM (inactive)
//
compound: CCOC(=O)C(C(=O)OCC)=c1sc(=C(C(=O)OCC)C(=O)OCC)s1
GI50: > 100 µM (inactive)
//
compound: C/C(=C\CO)CC/C=C(\C)CNc1ccccc1
GI50: 16 µM (inactive)
//
compound: O=C(NN1C(=O)CS(=O)(=O)C1c1ccc(Cl)c(Cl)c1)c1ccncc1 (centres undefined)
GI50: > 94.2 µM (inactive)
//
compound: NCCSCC(N)C(=O)O (centres undefined)
GI50: > 63.7 µM (inactive)
//
compound: Cc1cc(Cc2c(F)c(F)c(Cc3cc(C)no3)c(F)c2F)on1
GI50: 28.4 µM (inactive)
//
compound: CC(C)CCNC(=O)c1ccc(CNC(=O)/C=C/c2ccc3c(c2)-c2ccccc2C3)cc1
GI50: 36.9 µM (inactive)
